Where do these numbers come from? They come from ChEMBL document CHEMBL1147922.

- System: Staphylococcus aureus
- method.description: Antibacterial activity against Staphylococcus aureus ATCC 13709
- Format: functional
property: MIC (µg/mL)
The response must be a number in µg/mL with no trailing unit.

compound: COc1ccc2nccc(-n3cc4c(n3)CCC(NC(=O)c3ccc5c(c3)NC(=O)CO5)C4)c2c1 (stereo not drawn)
observed: 0.125

Ask: What is its MIC for Staphylococcus aureus? Entry: COc1ccc2nccc(-n3cc4c(n3)CCC(NCc3ccc5c(c3)OCCCO5)C4)c2n1 (stereo not drawn)
Reply: 1

Ask: Okay, and COc1ccc2nccc(-n3cc4c(n3)CCC(NC(=O)c3cc5c(cc3C(=O)O)SCC(=O)N5)C4)c2c1 (stereo not drawn) ?
Reply: 1

Ask: Request: COc1ccc2nccc(-n3cc4c(n3)CCC(NCc3ccc5c(c3)NC(=O)CS5)C4)c2c1 (stereo not drawn)
Reply: 0.5

Ask: Record: COc1ccc2nccc(-n3cc4c(n3)CCC(NCc3ccc5c(c3)OCCO5)C4)c2c1 (stereo not drawn)
Reply: 0.5

Ask: For COc1ccc2nccc(-n3cc4c(n3)CCC(NC(=O)c3ccc(C)c([N+](=O)[O-])c3)C4)c2c1 (stereo not drawn) then?
Reply: 0.25

Ask: Repeat for the following compound: COc1ccc2nccc(-n3cc4c(n3)CCC(NC(=O)c3c(F)cc5c(c3F)NC(=O)CS5)C4)c2n1 (stereo not drawn)
Reply: 0.125
